Data provenance is patent US12692547B2.

system: GMF cells (A-172 with inducible MAN2A1-FER-FLAG); assay: Cell death by Annexin V and propidium iodide staining, GMF cells; format: cell-based; details: Homo sapiens, A 172, GMF cells, Tet+ (MAN2A1-FER-FLAG induced)
pIC50 values, listed per item
# log scale: pIC50 equals minus log10 of the concentration in mol/L

• C[C@@H](Oc1cc(-c2cnn(C3CCNCC3)c2)cnc1N)c1c(Cl)ccc(F)c1Cl = 7.48

Shifting focus to the compound that follows.
Task: Enter measured pIC50, system GMF cells (A-172 with inducible MAN2A1-FER-FLAG), for the compound shown: C=CC(=O)Nc1cc2c(Nc3ccc(F)c(Cl)c3)ncnc2cc1OCCCN1CCOCC1
Output: 7.97
